The values you see were collected from patent US8785457B2.

# key: entry, value: pIC50
- tested.on: mTOR (Homo sapiens)
- Construct: endogenous in cells; host or cells: Jurkat, clone E6-1 (ATCC TIB-152) cell lysate
- protocol.text: mTOR kinobeads assay (competitive binding in Jurkat cell lysate, immunodetection)
- test.context: Further Kinobeads Data; read-out: mTor
pIC50: −log10 of the molar value.

COC(=O)N1Cc2nc(-c3ccc(NC(=O)NC4CC4)cc3F)nc(N3CCOCC3)c2C1 = > 7.00
CCNC(=O)Nc1ccc(-c2nc3c(c(N4CCOC[C@@H]4C)n2)CN(C(=O)OC)C3)c(F)c1 = 6.00 to 7.00
CCNC(=O)Nc1ccc(-c2nc3c(c(N4CCOCC4)n2)CN(C(C)=O)C3)c(F)c1 = > 7.00

Answer briefly: pIC50 recorded on mTOR (Homo sapiens) for CCNC(=O)Nc1c(F)cc(-c2nc3c(c(N4CCOC[C@@H]4C)n2)CN(C)C3)cc1F
5.00 to 6.00

Answer briefly: pIC50 recorded on mTOR (Homo sapiens) for CCNC(=O)Nc1ccc(-c2nc3c(c(N4CCOC[C@@H]4C)n2)CCNC3)c(F)c1
> 7.00

----------
- tested.on: mTOR (Homo sapiens)
- Construct: endogenous in cells; host or cells: Jurkat, clone E6-1 (ATCC TIB-152) cell lysate
- protocol.text: mTOR kinobeads assay (competitive binding in Jurkat cell lysate, immunodetection)
- test.context: kinobeads assay, Table 6; read-out: Inhibition values (IC50) mTOR
pIC50: −log10 of the molar value.
assay.metric: pIC50

Examples from the recorded data:
CCNC(=O)Nc1ccc(-c2nc3c(c(N4CCOCC4)n2)CCN(C(=O)OCC)C3)cc1 [Example 96] = 6.00 to 7.00
CCNC(=O)Nc1ccc(-c2nc3c(c(N4CCOC[C@@H]4C)n2)CCN(C(=O)OC)C3)cc1 [Example 81] = > 7.00

Using the record for C[C@H]1COCCN1c1nc(-c2ccc(NC(=O)NC3CC3)cc2)nc2c1CN(C(=O)C1CCOCC1)C2 [Example 129] , state its measured pIC50.
> 7.00

Using the record for CCNC(=O)Nc1ccc(-c2nc3c(c(N4CCOC[C@@H]4C)n2)CN(C(=O)OC(C)(C)C)C3)cc1 [Example 1] , state its measured pIC50.
6.00 to 7.00

----------
# key: entry, value: pIC50
- tested.on: mTOR (Homo sapiens, UniProt P42345)
- Construct: endogenous in cells; host or cells: Jurkat, clone E6-1 (ATCC TIB-152) cell lysate
- protocol.text: mTOR kinobeads assay (competitive binding in Jurkat cell lysate, immunodetection)
- test.context: kinobeads assay, Table 6; read-out: Inhibition values (IC50) mTOR
pIC50: −log10 of the molar value.

C[C@H]1COCCN1c1nc(-c2ccc(NC(=O)NC3CC3)cc2)nc2c1CN(C(=O)CCC(N)=O)C2 = > 7.00
CCNC(=O)Nc1ccc(-c2nc3c(c(N4CCOCC4)n2)CN(C(C)=O)C3)cc1 = > 7.00
CCNC(=O)Nc1ccc(-c2nc3c(c(N4CCOC[C@@H]4C)n2)CN(C(=O)C2CCNCC2)C3)cc1F = 6.00 to 7.00

Continue with the compound presented below.
Using the record for CCOC(=O)N1Cc2nc(-c3ccc(NC(=O)NC4CC4)c(F)c3)nc(N3CCOC[C@@H]3C)c2C1 , state its measured pIC50.
6.00 to 7.00
